Assay: reduced mouse 2C T cell binding to pMHC/ICAM-1 vesicles – MLPCN validation set, flow cytometry, LFA-1/ICAM-1 modulator project, pilot screen (AID 2523);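 also: mean PE anti-B7-1 fluorescence of CD8+ cells relative to row control; 100% = QL9-loaded vesicles with DMSO vehicle in the same plate row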
Details: 2C mouse CD8+ T cells, at 7 µM
Calls of active or inactive are those of the source.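 The calls were made as follows: active = response below a set limit, under 55% cells CD8-positive and vesicle-bound, and CD8 cells' 90th-percentile brightness under 279; inactive = the rest.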
Result category, one only: class 1 (active), class 0 (inactive)

Recorded results for 2 compounds are shown here.
1. Nc1nc(SCc2ccc([N+](=O)[O-])cc2)c2ncn(C3OC(CO)C(O)C3O)c2n1 (centres undefined) :: class 0
2. COc1ccccc1C(CCN(Cc1ccccc1)C(C)=O)c1ccco1 (centres undefined) :: class 0

Which outcome did this test record for the compound CC(C)CN1CCN(Cc2cccn2-c2ccccn2)CC1CCO (centres undefined) ?
class 0

Which outcome did this test record for the compound CC[C@]1(O)CC2CN(CCc3c([nH]c4ccccc34)[C@@](C(=O)OC)(c3cc4c(cc3OC)N(C=O)[C@H]3[C@@](O)(C(=O)OC)[C@H](OC(C)=O)[C@]5(CC)C=CCN6CC[C@]43[C@@H]65)C2)C1 (some centres undefined) ?
class 0

Which outcome did this test record for the compound CN(C)[C@@H]1C(=O)C(C(N)=O)=C(O)[C@@]2(O)C(=O)C3=C(O)c4c(O)ccc(Cl)c4[C@@H](O)[C@H]3C[C@@H]12 ?
class 0

Which outcome did this test record for the compound C[C@@H]1CCC[C@H](C)N1NC(=O)c1ccc(Cl)c(S(N)(=O)=O)c1 ?
class 0

Which outcome did this test record for the compound COc1ccc(CNCCC(c2ccc(F)cc2)c2ccc(OC(C)C)cc2)cc1OC (centres undefined) ?
class 0

Which outcome did this test record for the compound COc1ccc(NC(=O)C2CCCN2C(=O)OC(C)(C)C)cc1 (centres undefined) ?
class 0

Which outcome did this test record for the compound Cn1c(=O)c2nc3ccccc3nc2n(C)c1=O ?
class 0

Which outcome did this test record for the compound OCC1CCN(Cc2cn(Cc3ccccc3)nc2-c2cc3ccccc3o2)CC1 ?
class 0
